biological target: cynomolgus CD38 on cells expressing recombinant cynomolgus CD38 (cynomolgus, UniProt Q5VAN0 1-301)
PROPERTY MEASURED: FOB (fold-over-background of MFI) (fold over background)
State the answer as a number, implicitly in fold over background.

stdin: // query FOB (fold-over-background of MFI) value for entry CD38TM3 formatted into human IgG1 (antibody, V domains shown) VH: QVQLVQSGAEVKKPGESLKISCKGSGYSFTSYWIGWVRQMPGKGLEWMGIIYPGDSDTRYSPSFQGQVTISADKSISTAYLQWSSLKASDTAMYYCARGPSTGFWSGNYFDYWGQGTLVTVSS VL: QTVVTQEPSLTVSPGETVTLTCASSTGAVTSGFYPNWFQQKPGQAPRALIYATNNKYSWTPARFSGSLLGDKAALTLSRVQPEDEADYYCLVYYDGAWVFGGGTKLTVLG
stdout: 528

Origin of values: patent US12312411
